- System: SW-620
- test protocol: NCI tumour cell line growth inhibition, 48 h
Activity calls are given as the source filed them. No stated cut-off is given here; in the data, active = GI50 up to about 1.1 µM and inactive = higher.
This section presents molecules with their documented GI50 values.

Record excerpt, results attached:
{"molecule": "Cc1cc(-c2nc3cc(F)ccc3s2)ccc1NC(=O)[C@@H](N)CCCCN", "test target": "SW-620", "reported metric": "GI50", "reported value": "2.65 µM (inactive)"}
{"molecule": "Cc1ccc(S(=O)(=O)NNC(=O)c2sc(-c3nc(C)c(C(=O)NNS(=O)(=O)c4ccc(C)cc4)s3)nc2C)cc1", "test target": "SW-620", "reported metric": "GI50", "reported value": "> 100 µM (inactive)"}

Could you now consider this next molecule?
Query C=CCC(N(C)C(=O)[C@H](Cc1ccccc1)NC(=O)OCc1ccccc1)P(=O)(Oc1ccccc1)Oc1ccccc1 (some centres undefined) yields GI50 of > 100 µM (inactive)

* * *

- System: MDA-MB-231
- test protocol: NCI tumour cell line growth inhibition, 48 h
Active and inactive are the calls of the source. No stated cut-off is given here; in the data, active = GI50 up to about 1.1 µM and inactive = higher.
reported metric: GI50

Record excerpt, results attached:
{"compound": "O=C1NC(=S)N/C1=C\\c1cc2c(=O)c3ccccc3sc2s1", "GI50": "> 100 µM (inactive)"}
{"compound": "COc1cc2c(cc1-c1coc3cc(O)ccc3c1=O)OCO2 [CUNEATIN]", "GI50": "> 10 µM (inactive)"}

Could you now consider this next compound?
Query COc1ccc(OC)c2c(C)ccnc12 yields GI50 of 34 µM (inactive)

* * *

This section presents compounds with their documented GI50 values.
- Test system: MDA-MB-231
- test protocol: NCI tumour cell line growth inhibition, 48 h
Active and inactive are the calls of the source. No stated cut-off is given here; in the data, active = GI50 up to about 1.1 µM and inactive = higher.

{"compound": "COC(=O)c1ccc(Oc2nc3ccccc3nc2-c2cccs2)cc1", "reported value": "21.3 µM (inactive)"}
{"compound": "COC(=O)[C@H](Cc1ccccc1)NP(=O)(OCCC#N)OCC1OC(n2cc(C)c(=O)[nH]c2=O)CC1N=[N+]=[N-] (some centres undefined)", "reported value": "> 100 µM (inactive)"}
{"compound": "CCOC(=O)C(C(=S)Nc1ccccc1)c1nn2c(=O)cc(C)nc2s1 (centres undefined)", "reported value": "31.8 µM (inactive)"}

Could you now consider this next compound?
Query Cc1cn([C@H]2C=C[C@@H](CO)O2)c(=O)[nH]c1=O [STAVUDINE] yields GI50 of > 1000 µM (inactive)

* * *

This section presents molecules with their documented GI50 values.
- System: HL-60
- test protocol: NCI tumour cell line growth inhibition, 48 h
Activity calls are given as the source filed them. Rule as the data show it: active = GI50 up to about 1.1 µM and inactive = higher.

Record excerpt, results attached:
{"molecule": "CC(=O)OC12c3ccccc3-c3ccccc3C1C(C(=O)O)C2(Cl)C(=O)O (centres undefined)", "GI50": "> 10 µM (inactive)"}
{"molecule": "OC1(C(F)(F)F)OCCN=C1C(F)(F)F (centres undefined)", "GI50": "37.7 µM (inactive)"}
{"molecule": "Nc1nc2c(c(=O)[nH]1)C(c1ccc(Cl)cc1)C=C(c1ccccc1)N2 (centres undefined)", "GI50": "30.8 µM (inactive)"}
{"molecule": "COc1cccc(C(=O)C2C(=O)N(C)CCc3ccccc32)c1OC (centres undefined)", "GI50": "> 100 µM (inactive)"}
{"molecule": "O=C(/C(=C\\I)c1ccccc1)c1ccccc1", "GI50": "0.458 µM (active)"}

Could you now consider this next molecule?
Query O=C(/C=C/c1ccco1)N1CCN(Cc2ccccc2)CC1 yields GI50 of > 100 µM (inactive)

* * *

- Test system: COLO 205
- test protocol: NCI tumour cell line growth inhibition, 48 h
The source made the active and inactive calls. Rule as the data show it: active = GI50 up to about 1.1 µM and inactive = higher.
The reply should be one of these categories: active, inactive

{"compound": "CC(C)c1ccc2nc3ccc(C(=O)NCCN(C)C)cn3c(=O)c2c1", "discrete label": "inactive"}
{"compound": "OCCN(CCO)c1ccc2c(c1)Cc1ccccc1-2", "discrete label": "inactive"}
{"compound": "COc1ccc(-c2csc(=[N+]3CCCCC3)s2)cc1", "discrete label": "inactive"}
{"compound": "O=C1NC(=S)N/C1=C\\c1cc2c(=O)c3ccccc3sc2s1", "discrete label": "inactive"}

Which outcome was entered for the compound Cc1ccc2nc3c(Cl)cc(=O)cc-3sc2c1 in this test? inactive

Which outcome was entered for the compound O=C(/C(=C\I)c1ccccc1)c1ccccc1 in this test? inactive

Which outcome was entered for the compound C[N+]1(CCC(=O)c2ccco2)CC2CCC(CC2)C1 (stereo unspecified) in this test? inactive

* * *

- Tested on: OVCAR-3
- test protocol: NCI tumour cell line growth inhibition, 48 h
Activity calls are given as the source filed them. Cut-off read from the data, not from the text of the source: active = GI50 up to about 1.1 µM and inactive = higher.
The reply should be one of these categories: active, inactive

Illustrative cases are given below, each with its answer.
{"compound": "COC(=O)c1ccc(Oc2nc3ccccc3nc2-c2cccs2)cc1", "discrete label": "inactive"}
{"compound": "C/C(=N\\NC(=S)N1CCCCCC1)c1cccc2cccnc12", "discrete label": "active"}

Which outcome was entered for the compound O=c1ccn(C2OC(CO)C(O)C2[Se]c2ccccc2)c(=O)[nH]1 (configuration not stated) in this test? inactive

Which outcome was entered for the compound CCOC(=O)c1nnsc1NN in this test? inactive

Which outcome was entered for the compound O=c1sc(-c2nc3ccccc3[nH]2)c(/N=C/c2ccccc2)n1-c1ccccc1 in this test? inactive

* * *

- Tested on: HCT-116
- test protocol: NCI tumour cell line growth inhibition, 48 h
Activity calls are given as the source filed them. Rule as the data show it: active = GI50 up to about 1.1 µM and inactive = higher.
The reply should be one of these categories: active, inactive

{"molecule": "NC(=O)Cc1ncn(-c2ccccc2)n1", "discrete label": "inactive"}

Which outcome was entered for the molecule N#Cc1c(=O)c2ccccc2n2c1[nH]c1ccccc12 in this test? inactive

Which outcome was entered for the molecule NCCN1C(=O)c2ccccc2C1(O)c1ccc(Cl)cc1 (configuration not stated) in this test? inactive

Which outcome was entered for the molecule CC1(C)C2=CCCC(=O)[C@@]2(C)CC[C@@H]1O in this test? inactive

Which outcome was entered for the molecule CC1(C)N[PH]2(Nc3ccccc3O2)OC1=O in this test? inactive

* * *

- System: EKVX
- test protocol: NCI tumour cell line growth inhibition, 48 h
Active and inactive are the calls of the source. No stated cut-off is given here; in the data, active = GI50 up to about 1.1 µM and inactive = higher.
The reply should be one of these categories: 1 for active, 0 for inactive

Illustrative cases are given below, each with its answer.
{"molecule": "CN1Nc2ccccc2CC1=O", "discrete label": 0}
{"molecule": "N#Cc1c(=O)c2ccccc2n2c1[nH]c1ccccc12", "discrete label": 0}
{"molecule": "Cc1cc(O)nc(NN2C(Cl)C(=O)C2c2ccc([N+](=O)[O-])cc2)n1 (stereo not given)", "discrete label": 0}

Please find the next molecule below.
Which outcome was entered for the molecule CCCCCCNCCc1c[nH]cn1 in this test? 0

* * *

- Tested on: PC-3
- test protocol: NCI tumour cell line growth inhibition, 48 h
Activity calls are given as the source filed them. Rule as the data show it: active = GI50 up to about 1.1 µM and inactive = higher.
This section presents compounds with their documented GI50 values.

Record excerpt, results attached:
{"compound": "CCC(C#N)(c1ccccc1)N(CCc1ccccc1)C(=O)c1ccccc1 (centres undefined)", "GI50": "> 100 µM (inactive)"}
{"compound": "O=c1ccn(C2OC(CO)C(O)C2[Se]c2ccccc2)c(=O)[nH]1 (centres undefined)", "GI50": "> 100 µM (inactive)"}
{"compound": "COC(=O)C(=O)C(C(=O)C(=O)Nc1ccccc1OC)c1nc2ccc([N+](=O)[O-])cc2nc1O (centres undefined)", "GI50": "> 100 µM (inactive)"}

Could you now consider this next compound?
Query OCCN(CCO)c1ccc2c(c1)Cc1ccccc1-2 yields GI50 of 42.6 µM (inactive)

* * *

This section presents molecules with their documented GI50 values.
- System: T47D
- test protocol: NCI tumour cell line growth inhibition, 48 h
Calls of active or inactive are those of the source. Cut-off read from the data, not from the text of the source: active = GI50 up to about 1.1 µM and inactive = higher.

{"molecule": "O=C1C=C(c2ccccc2)OC1C1Sc2ccccc2NC1=O (stereo unspecified)", "test target": "T47D", "reported value": "10.4 µM (inactive)"}
{"molecule": "COc1cc2c(c3c1c(=O)c1ccccc1n3C)C=CC1(CCCCC1)O2", "test target": "T47D", "reported value": "4.41 µM (inactive)"}
{"molecule": "N=C(N)n1nc2c(c1O)CCCC2", "test target": "T47D", "reported value": "> 100 µM (inactive)"}
{"molecule": "CC1(C)COC(c2cccc(C(=O)c3ccccc3)c2)=N1", "test target": "T47D", "reported value": "25.7 µM (inactive)"}
{"molecule": "O=CN(O)CC(=O)O", "test target": "T47D", "reported value": "> 100 µM (inactive)"}

T47D data for NC1CC(=O)c2csc(Br)c21 (stereo unspecified) ; its GI50: 24 µM (inactive)

* * *

- System: HL-60
- test protocol: NCI tumour cell line growth inhibition, 48 h
Calls of active or inactive are those of the source. Cut-off read from the data, not from the text of the source: active = GI50 up to about 1.1 µM and inactive = higher.
The reply should be one of these categories: True = active, False = inactive

{"compound": "O=C1/C(=C/c2cccc(Br)c2)Cc2ccccc21", "discrete label": "False"}

Which outcome was entered for the compound CN(C)c1ccc(/C=C/c2ccc(/C=C/c3ccc(N(C)C)cc3)cc2)cc1 in this test? False

Which outcome was entered for the compound Cc1cc(C)nc(NS(=O)(=O)c2ccc(Nc3c4ccccc4nc4c(C(=O)NC(CO)(CO)CO)cccc34)cc2)n1 in this test? False

Which outcome was entered for the compound Cc1cc(C)c(C(=O)c2no[n+]([O-])c2C(=O)c2c(C)cc(C)c(Br)c2C)c(C)c1Br in this test? False

Which outcome was entered for the compound CC1(C)CCCCCCC2CC2CCCCCC(C)(C)C1=O (centres undefined) in this test? False

Which outcome was entered for the compound CCN(CC)CCNc1ccc2ncn3c4ccccc4c(=O)c1c23 in this test? False

Which outcome was entered for the compound CNc1nncc2[nH]cnc12 in this test? False

Which outcome was entered for the compound C=C(C)C#CC(O)(C(=O)OC1CCN(C)CC1)C(C)C (centres undefined) in this test? False

Which outcome was entered for the compound CCOC(=O)C(C(=S)Nc1ccccc1)c1nn2c(=O)cc(C)nc2s1 (centres undefined) in this test? False

Which outcome was entered for the compound Cn1c2ccccc2n2c3ccccc3c(=S)c(C#N)c12 in this test? False

Which outcome was entered for the compound COC1CCC2C(NS(=O)(=O)c3ccc(C)cc3)CCCC2O1.Cc1ccc(S(=O)(=O)NC(C)(C)C=O)cc1 (centres undefined) in this test? False

Which outcome was entered for the compound O=C(N/C(=C\c1ccccc1Cl)c1nc2ccccc2[nH]1)c1ccccc1 in this test? False

Which outcome was entered for the compound O=C1CSC(=S)N1 in this test? False
